SYSTEM NAME: T1, human GFRα3 expressed with a C-terminal mFc tag (human)
T1 construct: also called hGFRα3-mFc
T1 chain: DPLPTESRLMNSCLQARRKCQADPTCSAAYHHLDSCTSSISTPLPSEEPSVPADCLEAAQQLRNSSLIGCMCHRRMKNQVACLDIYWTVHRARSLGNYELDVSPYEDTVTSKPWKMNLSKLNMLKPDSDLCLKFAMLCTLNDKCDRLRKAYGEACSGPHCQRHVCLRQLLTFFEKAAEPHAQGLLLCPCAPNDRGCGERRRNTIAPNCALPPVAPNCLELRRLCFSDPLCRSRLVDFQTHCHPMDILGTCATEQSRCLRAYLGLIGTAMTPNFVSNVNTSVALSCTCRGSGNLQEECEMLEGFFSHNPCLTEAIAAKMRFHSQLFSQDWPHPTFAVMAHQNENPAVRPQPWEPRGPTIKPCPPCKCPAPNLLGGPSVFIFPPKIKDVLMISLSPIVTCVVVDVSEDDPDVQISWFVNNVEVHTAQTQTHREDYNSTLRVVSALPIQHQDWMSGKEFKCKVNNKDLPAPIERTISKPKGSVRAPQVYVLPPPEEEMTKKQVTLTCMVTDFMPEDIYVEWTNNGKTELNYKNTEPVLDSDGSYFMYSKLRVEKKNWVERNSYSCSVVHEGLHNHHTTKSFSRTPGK
ASSAY NOTES: SPR, Ab captured, 37C
MEASURE: Kd

Check out these entries, answers already filled in.
{"columns": ["BINDER", "MEASURE", "REPORTED"],
 "data": [
  ["H4H2345S (antibody, human IgG4, V domains shown, human IgG4 Fc (H4H)) VH: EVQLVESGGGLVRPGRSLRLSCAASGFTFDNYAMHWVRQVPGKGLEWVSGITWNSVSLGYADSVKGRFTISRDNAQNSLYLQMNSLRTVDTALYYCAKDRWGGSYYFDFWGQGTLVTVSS VL: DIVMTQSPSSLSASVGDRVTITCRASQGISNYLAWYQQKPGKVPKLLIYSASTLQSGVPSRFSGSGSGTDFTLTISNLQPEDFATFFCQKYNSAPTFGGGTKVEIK", "Kd", "0.106 nM"],
  ["H4H2292S (antibody, human IgG4, V domains shown, human IgG4 Fc (H4H)) VH: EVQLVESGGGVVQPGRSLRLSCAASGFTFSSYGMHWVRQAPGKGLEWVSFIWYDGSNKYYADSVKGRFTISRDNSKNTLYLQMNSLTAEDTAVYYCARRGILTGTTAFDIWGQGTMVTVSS VL: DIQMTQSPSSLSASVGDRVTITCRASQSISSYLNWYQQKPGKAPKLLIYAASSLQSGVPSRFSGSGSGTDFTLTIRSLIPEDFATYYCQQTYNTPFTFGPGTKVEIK", "Kd", "0.0432 nM"]
]}

Turning now to a further binder:
Sure, the documented Kd for H4H2357S (antibody, human IgG4, V domains shown, human IgG4 Fc (H4H)) VH: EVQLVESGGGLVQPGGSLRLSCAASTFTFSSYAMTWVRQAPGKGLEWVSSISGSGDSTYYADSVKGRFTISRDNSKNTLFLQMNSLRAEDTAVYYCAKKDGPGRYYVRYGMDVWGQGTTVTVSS VL: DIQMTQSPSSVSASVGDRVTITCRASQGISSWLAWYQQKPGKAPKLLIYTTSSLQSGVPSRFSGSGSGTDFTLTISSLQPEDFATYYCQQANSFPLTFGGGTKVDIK is 0.0793 nM

The origin of these recorded values is patent US20140056903A1.
